Tested on: MARK4;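 further: KINOMEscan scanMAX binding as percent activity remaining versus control; lower means stronger binding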
Conditions: Compound Concentration (nM):1000
Quantity Kind: Percent Control (%)
Reply with just the number (in %).

Example compounds with recorded Percent Control:
Cl.O=S1CCN(Cc2ccc(-c3ccc4ncnc(Nc5ccc(OCc6ccccc6)c(F)c5)c4c3)o2)CC1 [GW576924A] ... 89
COc1cc(C)c(N(C)C(=O)CN(C)C)cc1Nc1nc(Nc2cccc(F)c2C(N)=O)c2cc[nH]c2n1 ... 89
CN1CCN(C(=O)c2ccc(NC(=O)Nc3ccc(N(C)c4ccnc(Nc5ccc(CS(C)(=O)=O)cc5)n4)cc3)cc2)CC1.Cl [GW830263A] ... 92

# input for lookup
Field request: Percent Control | item: CN(C)c1cc2c(Nc3ccc4c(cnn4Cc4ccccc4)c3)ncnc2cn1 [GW282974X]
90

Source of measurements: paper PMC7826789
